The measured values listed here are drawn from PubChem BioAssay (NCI).

- Tested on: DU-145 prostate
- test-protocol: NCI-60 one-dose screen, 48 h (100 = growth as untreated, 0 = no growth, -100 = all killed)
- particulars: 10 µM unless noted
The panel holds about 83,000 compounds, 20% with a hit somewhere; the sample as a whole holds those more often.
Could you mark each record fulfilled if its growth falls strictly under 20%, and not fulfilled if it equals or exceeds it?

Consider the worked cases shown below.
compound: Cc1ccc(NC(=O)Nc2ccc(Nc3ncnc4sc5c(c34)CCOC5)cc2)cc1Cl
label: not fulfilled
//
compound: CCN1CCN(c2nc(C)cc(N(CCCNc3ccnc4cc(Cl)ccc34)Cc3ccc4c(c3)OCO4)n2)CC1
label: not fulfilled
//
compound: CNC(=O)c1ccc(Nc2ncc(C(F)(F)F)c(NCc3nccnc3N(C)S(C)(=O)=O)n2)cc1
label: fulfilled
//
compound: NC[C@@](O)(c1ccc(Cl)cc1)c1ccc(-c2cn[nH]c2)cc1
label: not fulfilled

Consider CC(=O)OC(C(=O)c1ccccc1)c1ccccc1 (stereo not given) . Does its growth lie strictly below 20%? not fulfilled
